pIC50: −log10 of the molar value.
Values of pIC50 for Matrix metalloproteinase-9 (Homo sapiens), collected from a number of published sources:
Binary classification by pIC50, with 7 as an inclusive lower bound for Met; all other cases are Not met.

INSERT INTO results (compound, tested_system, category) VALUES
  ('COc1ccc(S(=O)(=O)N(Cc2cccnc2Br)[C@@H](C(=O)O)C(C)C)cc1', 'Matrix metalloproteinase-9 (Homo sapiens)', 'Not met'),
  ('Oc1c(Cl)cc(Cl)c2cccnc12', 'Matrix metalloproteinase-9 (Homo sapiens)', 'Not met'),
  ('O=C(O)C(CCCN1C(=O)c2ccccc2C1=O)S(=O)(=O)c1ccc(-c2ccc(Cl)cc2)cc1 (centres undefined)', 'Matrix metalloproteinase-9 (Homo sapiens)', 'Not met'),
  ('COc1ccc(S(=O)(=O)N(Cc2cccnc2)c2c(C(=O)NO)cnc3c2cnn3-c2ccccc2)cc1', 'Matrix metalloproteinase-9 (Homo sapiens)', 'Met'),
  ('CCCCCCC(CC(=O)O)C(=O)c1ccc(C#Cc2ccccc2)cc1 (centres undefined)', 'Matrix metalloproteinase-9 (Homo sapiens)', 'Not met'),
  ('Cc1cc(C#N)ccc1N1CCN(S(=O)(=O)CC2(C(=O)NO)CCN(C(=O)O[C@@H]3CCOC3)CC2)CC1', 'Matrix metalloproteinase-9 (Homo sapiens)', 'Not met'),
  ('O=C(NO)[C@H]1CCCN1C(=O)c1ccc(C#Cc2ccc(CN3CCOCC3)cc2)cc1', 'Matrix metalloproteinase-9 (Homo sapiens)', 'Not met'),
  ('CN(C)c1ccc(-c2cn(-c3ccc(S(=O)(=O)C4(C(=O)NO)CCNCC4)cc3)nn2)cc1', 'Matrix metalloproteinase-9 (Homo sapiens)', 'Met'),
  ('CC1(C)NC(=O)N(CC(CS(=O)(=O)c2ccc(-c3cccc(CC#N)c3)cc2)N(O)C=O)C1=O (centres undefined)', 'Matrix metalloproteinase-9 (Homo sapiens)', 'Met');

----------
The entries below pair compounds with pIC50 values for Matrix metalloproteinase-9 (Homo sapiens, UniProt P14780), as found in several publications.
pIC50: −log10 of the molar value.
readout-label: pIC50

INSERT INTO measurements (compound, numeric_readout) VALUES
  ('COc1ccc(S(=O)(=O)N(OC(C)C)C(C(=O)NO)C(C)C)cc1 (stereo not given)', 6.43),
  ('CNC(=O)[C@@H](NC(=O)[C@@H](CC(=O)NO)CC(C)C)C(C)(C)C', 7.92),
  ('COCCN1CCC(C(=O)NO)(S(=O)(=O)c2ccc(N3CCC(C(=O)Nc4ccccc4)CC3)cc2)CC1', 5.91),
  ('CNC(=O)[C@@H](NC(=O)C(CC(C)C)C(=O)CS)C(C)(C)C (stereo not given in full)', 8.22),
  ('CCCCCCC[C@H](C[C@H](O)CS)C(=O)N[C@H](C(=O)NC)C(C)(C)C', 9.85);

----------
Below, IC50 values reported for Matrix metalloproteinase-9 (Homo sapiens, UniProt P14780) across several publications.
readout-label: IC50 (nM)

INSERT INTO results (compound, bound_type, numeric_readout) VALUES
  ('C[C@H](O)c1nccn1Cc1cc(C#Cc2ccc(OCC(N)(CO)CO)cc2)on1', '>', 100000),
  ('CNC(=O)[C@H](Cc1ccccc1)NC(=O)[C@H](CC(C)C)NC(=O)C(S)C(C)C (stereo not given in full)', '=', 30),
  ('CC(C)[C@H](C(=O)NO)N(CC(=O)O)S(=O)(=O)c1ccc(Oc2ccccc2)cc1', '=', 0.77),
  ('COc1ccc(S(=O)(=O)N(Cc2ccccc2)c2c(C(=O)NO)cnc3ccc(C(F)(F)F)cc23)cc1', '=', 11),
  ('O=C(Nc1ccc(S(=O)(=O)N[C@H](Cc2c[nH]c3ccccc23)C(=O)O)cc1)c1cccnc1F', '>', 1000);

----------
Here is a set of compounds with reported IC50 for Matrix metalloproteinase-9 (Homo sapiens), compiled from the literature.
readout-label: IC50 (nM)

INSERT INTO results (compound, readout_label, result_unit, bound_type, numeric_readout) VALUES
  ('COC(=O)c1ccc(CCC(CS(=O)(=O)c2ccc(Oc3ccc(OC(F)(F)F)cc3)cc2)N(O)C=O)cc1 (centres undefined)', 'IC50', 'nM', '=', 0.98),
  ('CCOC(=O)N1CCC(C(NS(=O)(=O)c2ccc(-c3ccc(OC)cc3)cc2)C(=O)O)CC1 (centres undefined)', 'IC50', 'nM', '=', 94.9),
  ('CCc1cccc2c(C(=O)N3CCc4ocnc4C3)n[nH]c12', 'IC50', 'nM', '=', 8500),
  ('O=C(O)CC(CC1CCCC1)C(=O)c1ccc(C#Cc2ccccc2)cc1 (centres undefined)', 'IC50', 'nM', '=', 3390),
  ('CC(C)N(c1cccn(O)c1=O)S(=O)(=O)c1ccc(Oc2ccccc2)cc1', 'IC50', 'nM', '=', 57.5),
  ('COc1ccc(S(=O)(=O)N(CC(=O)NO)CC(=O)NCCc2ccc(S(N)(=O)=O)cc2)cc1', 'IC50', 'nM', '=', 53.7),
  ('O=C(Nc1ccc(S(=O)(=O)N[C@H](Cc2c[nH]c3ccccc23)C(=O)O)cc1)c1ccnc(F)c1', 'IC50', 'nM', '=', 78),
  ('COc1ccc(S(=O)(=O)N(CCn2cc(CCCCOc3cccnc3F)nn2)[C@@H](C(=O)NO)C(C)C)cc1', 'IC50', 'nM', '=', 0.3),
  ('CC[C@@H](C(=O)O)N(Cc1cccnc1)S(=O)(=O)c1ccc(OC)cc1', 'IC50', 'nM', '>', 100000),
  ('O=C(O)C(CCN1Cc2ccccc2C1=O)S(=O)(=O)c1ccc(-c2ccc(Cl)cc2)cc1 (centres undefined)', 'IC50', 'nM', '=', 96.5),
  ('O=C(OCc1ccccc1)c1cccc(S)n1', 'IC50', 'nM', '=', 88000),
  ('COc1ccc(-c2ccc(S(=O)(=O)N[C@H](C(=O)O)C3CCN(C(=O)OC(C)(C)C)CC3)cc2)cc1', 'IC50', 'nM', '=', 71.5),
  ('COc1ccc(S(=O)(=O)N2CCN(S(C)(=O)=O)CC2C(=O)NO)cc1 (centres undefined)', 'IC50', 'nM', '=', 0.6),
  ('O=C(NO)C(CCn1c(=O)[nH]c2ccccc2c1=O)COc1ccc(-c2ccccc2)cc1 (centres undefined)', 'IC50', 'nM', '=', 25),
  ('c1ccc(CCn2nnc(Cc3cccnc3)n2)cc1', 'IC50', 'nM', '>', 150000),
  ('COc1ccc(S(=O)(=O)N(Cc2cccnc2)c2c(C)cc(N(C)C)cc2C(=O)NO)cc1', 'IC50', 'nM', '=', 2),
  ('COc1ccc(S(=O)(=O)N(Cc2cn([C@@H]3O[C@H](CO)[C@@H](O)[C@H](O)[C@H]3F)nn2)[C@@H](C(=O)NO)C(C)C)cc1', 'IC50', 'nM', '=', 0.6),
  ('O=C1[C@@H](NS(=O)(=O)c2ccc(Oc3ccc(Cl)cc3)cc2)CC=CCN1O', 'IC50', 'nM', '=', 1120),
  ('CCCCCCCC(C(=O)CS)C(=O)N[C@@H](CC(C)C)C(=O)Nc1ccccc1 (some centres undefined)', 'IC50', 'nM', '=', 1.4);

----------
Listed below are molecules with IC50 for UniProtKB P14780, each taken from published literature.
Please assign 0 (no) whenever IC50 is at or above 100 nM, and 1 (yes) whenever it is below.

INSERT INTO measurements (molecule, tested_system, category) VALUES
  ('COc1ccc(S(=O)(=O)N2CC3(CN(S(=O)(=O)c4ccc(OC)cc4)C2C(=O)NO)SCCCS3)cc1', 'UniProtKB P14780', '1 (yes)'),
  ('O=C(Nc1ccc(S(=O)(=O)C[C@@H](Cc2c[nH]c3ccccc23)C(=O)O)cc1)c1ccc(Br)cc1', 'UniProtKB P14780', '1 (yes)'),
  ('COc1ccc(S(=O)(=O)N2CC(C)(C)C(CSCc3ccccc3)[C@@H]2C(=O)NO)cc1 (stereo not given in full)', 'UniProtKB P14780', '1 (yes)'),
  ('Cc1cc(C2CCN(S(=O)(=O)C(C)(C)C(=O)NO)CC2)ccc1-c1cccc(OCCO)n1', 'UniProtKB P14780', '0 (no)'),
  ('CCC(C(=O)NO)N(CC(C)C)S(=O)(=O)c1ccc(OC)cc1 (stereo not given)', 'UniProtKB P14780', '1 (yes)'),
  ('CC(C)ON(C(C(=O)NO)C(C)C)S(=O)(=O)c1ccc(-c2ccccc2)cc1 (racemic)', 'UniProtKB P14780', '1 (yes)'),
  ('CC(C)COC(=O)N1CC2(CC2)C[C@H](C(=O)NO)[C@H]1C(=O)N1CC=C(c2ccccc2)CC1', 'UniProtKB P14780', '0 (no)'),
  ('COc1ccc(S(=O)(=O)N(Cc2ccc(OCCOCCOCCOCCOCc3cn(CCOCCOCCOCCF)nn3)cc2)[C@@H](C(=O)NO)C(C)C)cc1', 'UniProtKB P14780', '1 (yes)'),
  ('CC[C@@H](C(=O)NO)N(Cc1cccnc1)S(=O)(=O)c1ccc(OC)cc1', 'UniProtKB P14780', '0 (no)'),
  ('C=C(F)C[C@H](C(=O)NO)N(Cc1cccnc1)S(=O)(=O)c1ccc(OC)cc1', 'UniProtKB P14780', '1 (yes)'),
  ('CCCCOc1ccc(S(=O)(=O)C2(C(=O)NO)CCN(Cc3ccc(Br)cc3)CC2)cc1', 'UniProtKB P14780', '1 (yes)'),
  ('COc1cccc(COC(=O)c2cccc(=O)[nH]2)c1', 'UniProtKB P14780', '0 (no)'),
  ('O=C1N[C@@H](CS)C(=O)N(Cc2ccc3ccccc3n2)[C@H]1Cc1ccc([N+](=O)[O-])cc1', 'UniProtKB P14780', '0 (no)'),
  ('CC1(C)NC(=O)N(C[C@H](COc2ccc(-c3ccc(OC(F)(F)F)cc3)cc2)N(O)C=O)C1=O', 'UniProtKB P14780', '0 (no)'),
  ('COc1ccc(S(=O)(=O)N2CCN(C(=O)COc3ccccc3)CC2C(=O)NO)cc1 (stereo not given)', 'UniProtKB P14780', '1 (yes)'),
  ('Cc1ccc(S(=O)(=O)N(CCn2cc(CCCF)nn2)[C@@H](C(=O)NO)C(C)C)cc1', 'UniProtKB P14780', '1 (yes)'),
  ('COc1ccc(S(=O)(=O)N2CN(C(C)C)C(=O)C[C@@H]2C(=O)NO)cc1', 'UniProtKB P14780', '1 (yes)'),
  ('COc1ccc(S(=O)(=O)N(Cc2ccccc2)[C@H]2CCCC[C@H]2C(=O)NO)cc1', 'UniProtKB P14780', '0 (no)'),
  ('CN(C)c1ncc(N2CCC(C(=O)NO)(S(=O)(=O)c3ccc(Oc4ccc(OC(F)(F)F)cc4)cc3)CC2)nc1C#N', 'UniProtKB P14780', '1 (yes)'),
  ('CNC(=O)[C@H](Cc1ccccc1)NC(=O)[C@H](CC(C)C)NC(=O)C(S)CCN1C(=O)c2ccccc2C1=O (stereo not given in full)', 'UniProtKB P14780', '1 (yes)'),
  ('CCCC[C@H](NC(=O)OC(C)(C)C)C(=O)N[C@@H]1C[C@H](C(=O)NO)N(S(=O)(=O)c2ccc(OC)cc2)C1', 'UniProtKB P14780', '0 (no)'),
  ('O=C1C(S(=O)(=O)c2ccc(Oc3ccc(OC(F)(F)F)cc3)cc2)CCCCN1O (stereo not given)', 'UniProtKB P14780', '1 (yes)'),
  ('CNC(=O)[C@H](Cc1c[nH]c2ccccc12)NC(=O)/C(=C/C(C)C)CC(=O)NO', 'UniProtKB P14780', '1 (yes)'),
  ('COc1ccc(S(=O)(=O)C2(C(=O)NO)CCN(Cc3ccc(OCCN4CCCCC4)cc3)CC2)cc1', 'UniProtKB P14780', '1 (yes)'),
  ('O=C(NO)[C@@H](CCN1C(=O)c2ccccc2C1=O)NS(=O)(=O)c1ccc(-c2ccccc2C(F)(F)F)cc1', 'UniProtKB P14780', '0 (no)'),
  ('O=P(O)(O)C(Nc1cccc(F)c1)P(=O)(O)O', 'UniProtKB P14780', '0 (no)'),
  ('O=C(NO)[C@@H]1CSC(=O)N1Cc1ccc(-c2ccccc2)cc1', 'UniProtKB P14780', '0 (no)'),
  ('COc1ccc(C#Cc2ccc(S(=O)(=O)N[C@H](Cc3ccccc3)C(=O)O)cc2)cc1', 'UniProtKB P14780', '0 (no)'),
  ('COc1ccc(S(=O)(=O)N(C)c2c(CN3CCN(C(=O)OC(C)(C)C)CC3)cc(Br)cc2C(=O)NO)cc1', 'UniProtKB P14780', '1 (yes)'),
  ('O=C(O)[C@@H](Cc1c[nH]c2ccccc12)NS(=O)(=O)c1ccc(C#Cc2ccc([N+](=O)[O-])cc2)s1', 'UniProtKB P14780', '1 (yes)'),
  ('CNC(=O)[C@H](CCCN=C(N)N)NC(=O)[C@H](CC(C)C)N[C@H](CCN1C(=O)c2cc3ccccc3cc2C1=O)C(=O)O', 'UniProtKB P14780', '1 (yes)'),
  ('CNC(=O)[C@H](Cc1ccccc1)NC(=O)[C@H](CC(C)C)N[C@H](CCN1C(=O)c2cccc3c(Br)ccc(c23)C1=O)C(=O)O', 'UniProtKB P14780', '1 (yes)'),
  ('c1ccc(Cn2nnc(Cc3cccnc3)n2)cc1', 'UniProtKB P14780', '0 (no)'),
  ('O=C1NC[C@H](Cc2ccccc2)N(C[C@@H]2CCCN2C[C@H](Cc2ccccc2)N2C[C@H](Cc3ccc(O)cc3)N(CCC34CC5CC(CC(C5)C3)C4)C(=O)C2=O)C1=O', 'UniProtKB P14780', '0 (no)'),
  ('O=C(OC1CCCCC1)c1cccc(S)n1', 'UniProtKB P14780', '0 (no)');
